# test-method-notes: Antidiabetic activity in Wistar rat hemidiaphragm assessed as glucose uptake at 2 mg after 45 mins by GOD/POD enzymatic method in absence of insulin
# measurement-context: Diaphragm
parameter: Activity (mg/g)

[[record]]
molecule = "CN(CCOc1ccc(CC2SC(=O)NC2=O)cc1)c1ccccn1 (stereo unspecified)"
unit_of_measurement = "mg/g"
reported = 11.2

[[record]]
molecule = "COc1ccc(NC(=O)COc2ccc(CC3SC(=O)NC3=O)cc2OC)cc1 (stereo unspecified)"
unit_of_measurement = "mg/g"
reported = 11.2

[[record]]
molecule = "COc1ccc(NC(=O)COc2ccc(/C=C3/SC(=S)NC3=O)cc2OC)cc1"
unit_of_measurement = "mg/g"
reported = 9.75

[[record]]
molecule = "COc1cc(/C=C2/SC(=S)NC2=O)ccc1OCC(=O)NCc1ccccc1"
unit_of_measurement = "mg/g"
reported = 10.2

[[record]]
molecule = "COc1ccc(NC(=O)COc2ccc(/C=C3/SC(=O)NC3=O)cc2OC)cc1"
unit_of_measurement = "mg/g"
reported = 10.8

[[record]]
molecule = "COc1cc(/C=C2/SC(=S)NC2=O)ccc1OCC(=O)Nc1ccccc1"
unit_of_measurement = "mg/g"
reported = 8

[[record]]
molecule = "COc1ccc(NC(=O)COc2ccc(CC3SC(=S)NC3=O)cc2OC)cc1 (stereo unspecified)"
unit_of_measurement = "mg/g"
reported = 9.5

[[record]]
molecule = "COc1cc(/C=C2/SC(=S)NC2=O)ccc1OCC(=O)Nc1ccccn1"
unit_of_measurement = "mg/g"
reported = 9.75

[[record]]
molecule = "COc1cc(/C=C2/SC(=S)NC2=O)ccc1OCC(=O)Nc1ccccc1[N+](=O)[O-]"
unit_of_measurement = "mg/g"
reported = 9

[[record]]
molecule = "COc1cc(/C=C2/SC(=O)NC2=O)ccc1OCC(=O)NCc1ccccc1"
unit_of_measurement = "mg/g"
reported = 10.5

[[record]]
molecule = "COc1cc(/C=C2/SC(=O)NC2=O)ccc1OCC(=O)Nc1ccccc1"
unit_of_measurement = "mg/g"
reported = 12

[[record]]
molecule = "COc1cc(/C=C2/SC(=O)NC2=O)ccc1OCC(=O)Nc1ccccc1[N+](=O)[O-]"
unit_of_measurement = "mg/g"
reported = 9.75

[[record]]
molecule = "COc1cc(/C=C2/SC(=O)NC2=O)ccc1OCC(=O)Nc1ccccn1"
unit_of_measurement = "mg/g"
reported = 12.2

[[record]]
molecule = "COc1cc(/C=C2/SC(=O)NC2=O)ccc1OCC(=O)Nc1ccccc1C(N)=O"
unit_of_measurement = "mg/g"
reported = 10

[[record]]
molecule = "COc1cc(/C=C2/SC(=S)NC2=O)ccc1OCC(=O)NC1CCCCC1"
unit_of_measurement = "mg/g"
reported = 11.8

[[record]]
molecule = "COc1cc(/C=C2/SC(=O)NC2=O)ccc1OCC(=O)NC1CCCCC1"
unit_of_measurement = "mg/g"
reported = 9.5

